test system: hTERT-BJ; experiment: Cytotoxicity against hTERT-BJ cells at 12.50 uM after 48 hrs by resazurin dye-based fluorescence assay relative to control; format: cell-based; conditions: human, 12.5 µM
// assign True if Activity falls strictly below 1%, else False (ties count as False)

Observe how each entry below is paired with its result.
Cc1noc(NS(=O)(=O)c2ccc(NC(=O)c3cc4cc([N+](=O)[O-])ccc4oc3=O)cc2)c1C : False
O=C(N/N=C/c1cccnc1)c1cc2ccccc2oc1=O : True
O=C(N/N=C/c1cc2ccccc2nc1Cl)c1cc2cc([N+](=O)[O-])ccc2oc1=O : False

Lab note: confirm whether the reported Activity for this compound is below 1%, equality not counting. compound: `O=C(N/N=C/c1ccncc1)c1cc2cc(Br)ccc2oc1=O`
True

Thanks! And `Cc1noc(NS(=O)(=O)c2ccc(NC(=O)c3cc4ccc(O)cc4oc3=O)cc2)c1C` ?
False
